System: PPARg:RXRa (NR concentration 180 nM, RXRa partner concentration 90 nM)
TEST_DETAILS: PBM binding z-score (relative to random genomic background probes); higher = stronger binding; sequences stand for … in GC…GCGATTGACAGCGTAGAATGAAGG
# Lookup of reported PBM binding z-score keyed by entry

Use these answered entries as a reference point.
CCTCGGAGGACAACAGTAGGTCAGAGCTGCCAGA | 0.475
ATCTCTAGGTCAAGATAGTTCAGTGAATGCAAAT | 4.92
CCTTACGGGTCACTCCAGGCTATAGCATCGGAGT | 2.95

# PBM binding z-score lookup, item `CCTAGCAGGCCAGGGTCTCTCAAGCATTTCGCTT`
-0.954

# PBM binding z-score lookup, item `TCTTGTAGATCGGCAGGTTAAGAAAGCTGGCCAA`
-0.656

# PBM binding z-score lookup, item `TCATATGGGTAATACAGGTGAAAGTCGGCATCTA`
1.1

# PBM binding z-score lookup, item `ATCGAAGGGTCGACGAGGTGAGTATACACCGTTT`
1.3

# PBM binding z-score lookup, item `CAAACTAGTTCACCGGAAGGTCAAAGTCCGCATG`
1.87

# PBM binding z-score lookup, item `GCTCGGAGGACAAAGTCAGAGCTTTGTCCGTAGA`
-1.55

# PBM binding z-score lookup, item `ATCTCTAGGTAACAAGTTTAGTGAAAGAGAGGAC`
0.844

# PBM binding z-score lookup, item `GGAACGAGGGCAAGTTGATAGCAGAGTTTGATGG`
1.19

# PBM binding z-score lookup, item `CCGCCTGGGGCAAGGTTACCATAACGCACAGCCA`
0.654

====

Tested on: RXRa DBDmut IVT, anti-RXR (DBD mutation: RXRa K156A/R161A, NR concentration 90 nM)
TEST_DETAILS: PBM binding z-score (relative to random genomic background probes); higher = stronger binding; sequences stand for … in GC…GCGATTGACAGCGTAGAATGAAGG
Record t whenever PBM binding z-score is at 1 or higher; record f when lower.

Field: example entries. Status: answers known.
CCTACTGGGCCATCAGGTCATTGACATCAACGTT | f
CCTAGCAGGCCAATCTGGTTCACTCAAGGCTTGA | f
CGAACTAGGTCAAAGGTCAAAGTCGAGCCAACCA | t
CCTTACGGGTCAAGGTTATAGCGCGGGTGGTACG | t
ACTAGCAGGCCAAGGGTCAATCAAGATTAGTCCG | f

Moving on to the next sequence.
Given the entry `CGAACTAGGTCAGAACATGACAGTGAAGGATGAT` , answer whether its PBM binding z-score meets or surpasses 1.
f

====

Tested on: LXRa homodimer (NR concentration 270 nM)
TEST_DETAILS: PBM binding z-score (relative to random genomic background probes); higher = stronger binding; sequences stand for … in GC…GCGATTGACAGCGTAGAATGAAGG
READOUT_NAME: PBM binding z-score
A bare number is all that is needed in reply.

Use these answered entries as a reference point.
GCTAGTTGGTCAGTAAAAGGTCAGACACCGGTCG | 2.83
ATTTGTAGGTTAGCTGGGGTCATTCAGACTAGGC | 4.63
CGTCCAAGGTCAATGCTAGGACAGTGAAAGCATT | 0.325
TCTCGGAGGACACGAAGGGCAGAGCTTTCCAGAG | -0.59
GCTTGTAGATCAAGGGTAAGAAAGACTAAGCTAA | -0.732
GCTTGTAGCTCAAGGTTAAGAAAGACTAAGCTAA | -0.361
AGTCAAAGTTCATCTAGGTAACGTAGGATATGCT | 5.41
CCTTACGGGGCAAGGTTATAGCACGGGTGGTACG | -0.577
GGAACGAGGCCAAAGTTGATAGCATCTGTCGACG | -0.578
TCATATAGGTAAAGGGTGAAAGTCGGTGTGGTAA | 0.489

# PBM binding z-score lookup, item `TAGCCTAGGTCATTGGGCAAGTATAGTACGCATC`
0.712

# PBM binding z-score lookup, item `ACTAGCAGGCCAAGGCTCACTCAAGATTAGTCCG`
-0.331

# PBM binding z-score lookup, item `GATATAGGGTCAAGGCCAGAGTACGCGTATTGAT`
0.271

# PBM binding z-score lookup, item `AGTCAAAGTTCATCTAAGTAACGTAAGATATGCT`
4.97

# PBM binding z-score lookup, item `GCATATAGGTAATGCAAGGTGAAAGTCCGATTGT`
-0.0493

# PBM binding z-score lookup, item `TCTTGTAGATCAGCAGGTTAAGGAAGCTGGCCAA`
-0.204

# PBM binding z-score lookup, item `CGAAGTAGGTCATCCAGGACAGTGAATACATTGA`
1.2

# PBM binding z-score lookup, item `TAGCCTTGGTCATGGGCCAGTATACCACGCGAAC`
-0.571

# PBM binding z-score lookup, item `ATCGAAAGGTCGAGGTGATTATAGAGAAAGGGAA`
0.192

# PBM binding z-score lookup, item `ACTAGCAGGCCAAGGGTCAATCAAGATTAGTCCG`
0.134

# PBM binding z-score lookup, item `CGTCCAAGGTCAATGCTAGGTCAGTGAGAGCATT`
2.93

# PBM binding z-score lookup, item `TCTAGTAGATCAATAGAGGTTAAGAAAGTGCGCT`
0.28

# PBM binding z-score lookup, item `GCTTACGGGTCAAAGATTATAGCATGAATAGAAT`
-0.0414

# PBM binding z-score lookup, item `TCATATAGGTAAATGCTAGGTGAAACTCCGATCT`
0.327

# PBM binding z-score lookup, item `CCTGCTAGGTCAAGGTCAGCTAATCTACAGTATG`
1.09

# PBM binding z-score lookup, item `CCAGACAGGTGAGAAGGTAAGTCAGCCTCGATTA`
-0.318

====

# Lookup of reported PBM binding z-score keyed by entry
Test system: LXRa homodimer (NR concentration 270 nM)
TEST_DETAILS: PBM binding z-score (relative to random genomic background probes); higher = stronger binding; sequences stand for … in GC…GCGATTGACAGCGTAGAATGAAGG
A bare number is all that is needed in reply.

Use these answered entries as a reference point.
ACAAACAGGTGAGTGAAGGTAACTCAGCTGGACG | -0.278
CCTACTTGGTCAGGAGGTCACACACCGGATATGA | 2.02
CGAACTAGGTCATTGACAGGAGAGTGAATAGTAA | 0.0352
AGAATGAGGTTATAAAGATCAGGGAATTGCGGTC | 0.315
CATCCAAGGTCAGAGAGGTCAGTGAATGCCGAGT | 4.54
AGTCAAAGTTCACTAGGGAACGTAAGATTCAGCT | 2.42
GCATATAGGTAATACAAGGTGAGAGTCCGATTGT | -0.139
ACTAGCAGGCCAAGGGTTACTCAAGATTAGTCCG | -0.412

GET /values?readout=PBM binding z-score&system=LXRa homodimer (NR concentration 270 nM)&item= `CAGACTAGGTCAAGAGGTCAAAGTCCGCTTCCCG`
5.88

GET /values?readout=PBM binding z-score&system=LXRa homodimer (NR concentration 270 nM)&item= `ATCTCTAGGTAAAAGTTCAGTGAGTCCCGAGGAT`
1.36

GET /values?readout=PBM binding z-score&system=LXRa homodimer (NR concentration 270 nM)&item= `TATAGTTGGTCAAAGGTCACACACTCGAAATGCG`
3.62

GET /values?readout=PBM binding z-score&system=LXRa homodimer (NR concentration 270 nM)&item= `CGTCCAAGGTCAAGGGTCAGTGAAGAGATGACGG`
1.02

GET /values?readout=PBM binding z-score&system=LXRa homodimer (NR concentration 270 nM)&item= `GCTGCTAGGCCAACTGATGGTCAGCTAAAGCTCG`
-0.908

GET /values?readout=PBM binding z-score&system=LXRa homodimer (NR concentration 270 nM)&item= `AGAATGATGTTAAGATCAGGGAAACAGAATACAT`
-0.153

GET /values?readout=PBM binding z-score&system=LXRa homodimer (NR concentration 270 nM)&item= `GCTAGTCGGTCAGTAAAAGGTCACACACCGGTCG`
5.34

====

System: FXR:RXRa (NR concentration 270 nM, RXRa partner concentration 90 nM)
TEST_DETAILS: PBM binding z-score (relative to random genomic background probes); higher = stronger binding; sequences stand for … in GC…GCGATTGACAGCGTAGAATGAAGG
# Lookup of reported PBM binding z-score keyed by entry
A bare number is all that is needed in reply.

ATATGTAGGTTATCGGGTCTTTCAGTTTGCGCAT | 0.832
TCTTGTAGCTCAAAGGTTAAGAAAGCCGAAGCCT | 0.766
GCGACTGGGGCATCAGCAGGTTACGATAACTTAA | -0.306

# PBM binding z-score lookup, item `CCTACTGGGCAATTCAGAGGTCATTGATCATATG`
2.49

# PBM binding z-score lookup, item `TCTATTAGTTGAAGGGCAACGGACGAGTCCGTTT`
0.568

# PBM binding z-score lookup, item `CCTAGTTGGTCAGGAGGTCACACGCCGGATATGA`
3.62
